Reference source: PubChem BioAssay AID624330

Consider the following compounds and their measured inhibition readings.
# assay.target: Rac GTPase-activating protein 1 (Homo sapiens) (UniProt Q9H0H5)
# Sequence (Q9H0H5 whole entry, looked up): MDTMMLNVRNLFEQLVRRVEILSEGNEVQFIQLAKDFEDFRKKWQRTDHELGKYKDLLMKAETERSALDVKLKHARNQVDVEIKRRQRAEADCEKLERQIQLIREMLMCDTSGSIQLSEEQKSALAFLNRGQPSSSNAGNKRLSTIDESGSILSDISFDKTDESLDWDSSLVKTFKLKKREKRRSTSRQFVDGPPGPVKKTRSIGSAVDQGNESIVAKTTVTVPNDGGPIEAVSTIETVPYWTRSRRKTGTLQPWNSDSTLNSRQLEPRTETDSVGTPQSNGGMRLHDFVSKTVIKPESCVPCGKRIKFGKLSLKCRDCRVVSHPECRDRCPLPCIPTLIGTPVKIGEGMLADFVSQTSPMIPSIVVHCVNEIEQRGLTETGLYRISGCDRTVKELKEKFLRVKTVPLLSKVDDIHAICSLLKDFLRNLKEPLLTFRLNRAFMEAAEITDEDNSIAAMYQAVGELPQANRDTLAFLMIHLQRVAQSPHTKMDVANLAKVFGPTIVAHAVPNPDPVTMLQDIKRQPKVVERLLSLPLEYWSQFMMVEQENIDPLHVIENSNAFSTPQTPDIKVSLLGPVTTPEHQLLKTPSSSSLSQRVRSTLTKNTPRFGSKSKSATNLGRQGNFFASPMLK
# assay.method.text: blockers of MgcRacGAP-driven Rac1 GTP hydrolysis – biochemical, ADP Hunter fluorescence, primary and confirmatory, confirmation (AID 624330);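 note: fluorescence reports GDP produced by GAP-driven GTP hydrolysis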
# conditions: MgcRacGAP-stimulated Rac1 GTP hydrolysis, at 30 µM, active compounds read high, GST-tagged Rac1 F28L mutant substrate
The whole screen tested about 340,000 compounds, of which about 2,100 (0.62%) were called active. These entries were drawn from the full list. Measured potencies and affinities stand elsewhere.
Answer with a number only, understood to be in %.

Consider the worked cases shown below.
>>> df
                                   compound  outcome_measure  unit_tag  recorded_measurement
0         O=C(O)c1cc(NCc2cccs2)ccc1N1CCOCC1       inhibition         %                   8.2
1  N#CC1=C(S)N(c2ccccc2)C(c2cccs2)NC1=O (centres undefined)       inhibition         %                    53
2   COc1cc(/C=N/S(=O)(=O)c2ccccc2)cc(OC)c1O       inhibition         %                  9.73
3  O=C(Nc1ccc(Cl)cc1)C(c1ccccc1)N1CCOCC1 (centres undefined)       inhibition         %                  1.96
4    COc1ccccc1CNc1ccc(N2CCOCC2)c(C(=O)O)c1       inhibition         %                  11.4
5   Cn1c(-c2ccc3c(c2)OCO3)cnc1NCc1cccc(O)c1       inhibition         %                  26.8

Prompt: Which inhibition reading was recorded for the compound `NC(=O)C1(N2CCCCC2)CCN(Cc2ccc(Br)cc2)CC1` ?
Completion: -3.42

Prompt: Which inhibition reading was recorded for the compound `CN1CCN(C2=C(Cl)C(=O)c3ccccc3C2=O)CC1` ?
Completion: 12.8

Prompt: Which inhibition reading was recorded for the compound `O=C(Nc1cccc(S(=O)(=O)Nc2ccccc2F)c1)c1ccco1` ?
Completion: 0.67

Prompt: Which inhibition reading was recorded for the compound `Cn1c(-c2ccc3c(c2)OCO3)cnc1NCc1ccccc1` ?
Completion: 30.7

Prompt: Which inhibition reading was recorded for the compound `COc1ccccc1NC(=O)c1cccs1` ?
Completion: 0.52

Prompt: Which inhibition reading was recorded for the compound `COC(=O)c1cc(NCc2c(F)cccc2Cl)ccc1N1CCOCC1` ?
Completion: 23.3

Prompt: Which inhibition reading was recorded for the compound Cc1cccc(N2C(S)=C(C#N)C(=O)NC2c2ccco2)c1 (centres undefined) ?
Completion: 48.2

###

# assay.target: Rac GTPase-activating protein 1 (Homo sapiens) (UniProt Q9H0H5)
# assay.method.text: blockers of MgcRacGAP-driven Rac1 GTP hydrolysis – biochemical, ADP Hunter fluorescence, primary and confirmatory, confirmation (AID 624330);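 note: fluorescence reports GDP produced by GAP-driven GTP hydrolysis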
# conditions: MgcRacGAP-stimulated Rac1 GTP hydrolysis, at 30 µM, active compounds read high, GST-tagged Rac1 F28L mutant substrate
The whole screen tested about 340,000 compounds, of which about 2,100 (0.62%) were called active. These entries were drawn from the full list. Entries with a potency or affinity are not part of this list.
outcome.measure: inhibition (%)
Answer with a number only, understood to be in %.

Consider the worked cases shown below.
In [3]: df
Out[3]:
                                   compound  outcome_measure  unit_tag  recorded_measurement
0  O=C(Nc1ccc(N2CCN(C(=O)c3ccccc3)CC2)cc1)c1cccnc1       inhibition         %                  4.32
1  O=C(O)C1C2C=CC(C2)C1C(=O)NC1CCS(=O)(=O)C1 (stereo unspecified)       inhibition         %                  10.3

Prompt: Which inhibition reading was recorded for the compound CC1CCCC(NC(=O)CN2C(=O)NC(C)(c3ccccc3)C2=O)C1C (stereo unspecified) ?
Completion: 2.02

Prompt: Which inhibition reading was recorded for the compound `COc1ccc(S(=O)(=O)N2CCOCC2)cc1C(=O)N(C)CCOc1ccc(Cl)cc1` ?
Completion: 6.35

Prompt: Which inhibition reading was recorded for the compound `N#C/C(=C\c1cccc(O)c1)C(=O)Nc1ccc2c(c1)OCCO2` ?
Completion: 7.83

Prompt: Which inhibition reading was recorded for the compound O=C(NCc1ccco1)C1CC(c2cc(C(F)(F)F)cc(C(F)(F)F)c2)=NO1 (stereo unspecified) ?
Completion: 6.53
